# tested.target: NKp30 on human NK cells (human) (UniProt O14931)
# Sequence (O14931 19-201): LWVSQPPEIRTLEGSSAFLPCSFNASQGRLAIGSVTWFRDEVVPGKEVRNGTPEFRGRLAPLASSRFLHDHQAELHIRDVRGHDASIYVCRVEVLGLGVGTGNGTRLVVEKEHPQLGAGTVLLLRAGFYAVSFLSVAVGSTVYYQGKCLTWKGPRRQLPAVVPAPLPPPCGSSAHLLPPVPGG
# assay.procedure: cell-based or functional assay
Field 'label' (enum: MET / NOT MET). Set to MET when Max. IFNγ release (pg/ml), NK cells with A431 cells is strictly under 600 pg/mL; else NOT MET.

// known answers, use as guide
• VHH16 SEEDbody eff- (bispecific antibody, part only; not given: silenced SEED Fc and cetuximab Fab, V domains shown, not shown: another chain or arm of the molecule; a dimerising Fc or GST; small tags and cut ends) VHH: DVQLQESGGGLVQPGGSLRLSCTASGSIFSSLTMAWWRQAPGKQRELVAGITTDGSTDYADSVKGRFTISRDNAKNTVYLQMDSLKPEDTAVYYCNKSPYYDPTDYDSWGQGTQVTVSS = MET
• VHH4 SEEDbody eff- (bispecific antibody, part only; not given: silenced SEED Fc and cetuximab Fab, V domains shown, not shown: another chain or arm of the molecule; a dimerising Fc or GST; small tags and cut ends) VHH: DVQLQESGGGLVQPGESLRLSCLVSGVTYHFYDITWFRQAPGLEREGVSCISYASGSTKFADSVKGRFTISRDNAKNAVYLQMNSLKPEDTAVYFCAMQGSGSCSDFMSADSVLSWGQGTQVTVSS = MET
• VHH1 SEEDbody eff- (bispecific antibody, part only; not given: silenced SEED Fc and cetuximab Fab, V domains shown, not shown: another chain or arm of the molecule; a dimerising Fc or GST; small tags and cut ends) VHH: DVQLQESGGGLVQPGGSLRLSCATSGFTLDDYTIGWVRQAPGKEHEGVSCFSPSDGTTYYADSVKGRFTFSRDNAKNTVYLQMNSLKPEDTAVYYCAASFADGSSWCYDYWGQGTQVTVSS = NOT MET
• VHH2 SEEDbody eff- (bispecific antibody, part only; not given: silenced SEED Fc and cetuximab Fab, V domains shown, not shown: another chain or arm of the molecule; a dimerising Fc or GST; small tags and cut ends) VHH: DVQLQESGGGLVQAGGSLRLSCAVSGQTWTNYHIGWFRQAPGKARESVASIEWGGRGTYATDSVKGRFTISRDNAKNTVYLQMNSLKPEDTAVYYCAAQSSSRSPLESNYDYWGQGTQVTVSS = MET

Query string: Quick check: does VHH5 SEEDbody eff- (bispecific antibody, part only; not given: silenced SEED Fc and cetuximab Fab, V domains shown, not shown: another chain or arm of the molecule; a dimerising Fc or GST; small tags and cut ends) VHH: DVQLQESGGGLVQPGESLRLSCLVSGVTYHFYDITWFRQAPGLEREGVSCISYASGSTKFADSVKGRFTISRDNAKNAVYLQMNSLKPEDTAVYFCATQGSGSCSDFMSADSVLSWGQGTQVTVSS have Max. IFNγ release (pg/ml), NK cells with A431 cells under 600 pg/mL?
Result string: NOT MET
